B1: Neutrophil cytosol factor 2, residues 456 to 514; numbered along this chain, P19878 (parent)
chain: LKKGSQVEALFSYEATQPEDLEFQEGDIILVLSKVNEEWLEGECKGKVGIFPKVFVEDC

Variants of: B1
Test protocol: abundance fitness (aPCA) (normalised: wild type 0, dead -1); higher = more abundant; growth selection in yeast, the domain comes from the species named
Test settings: Homo sapiens
Using abundance fitness as the sorting value, the categories are class A: < -0.6; class B: ≥ -0.6 and < -0.2; class C: ≥ -0.2

Here are 10 variants together with their reported answers.
   mutation_descriptor    class
0                  Q6L  class C
1                 E41I  class C
2                 F23I  class B
3                  L1R  class C
4                  K3L  class B
5                 N36C  class A
6                  S5V  class C
7                 Q17V  class A
8                 V54D  class C
9                 E41V  class C

Task: Could you tell me which band E19K belongs to?
Result: class A

Task: Lab log: V31L — assign abundance fitness category
Result: class C

Task: Which of the defined bands does the recorded abundance fitness of L32P sit within?
Result: class C
